Each entry below lists one item and its recorded MAX(MFI) value.
- test-system: T1, human ROR1 on cells (HEK293T-hROR1, PANC-1, A549) (human, UniProt Q01973 30-937)
- T1 construct: whole, on cells; one molecule for the three cell lines; also called huROR1; cell surface ROR1
- T1 sequence (Q01973 30-937): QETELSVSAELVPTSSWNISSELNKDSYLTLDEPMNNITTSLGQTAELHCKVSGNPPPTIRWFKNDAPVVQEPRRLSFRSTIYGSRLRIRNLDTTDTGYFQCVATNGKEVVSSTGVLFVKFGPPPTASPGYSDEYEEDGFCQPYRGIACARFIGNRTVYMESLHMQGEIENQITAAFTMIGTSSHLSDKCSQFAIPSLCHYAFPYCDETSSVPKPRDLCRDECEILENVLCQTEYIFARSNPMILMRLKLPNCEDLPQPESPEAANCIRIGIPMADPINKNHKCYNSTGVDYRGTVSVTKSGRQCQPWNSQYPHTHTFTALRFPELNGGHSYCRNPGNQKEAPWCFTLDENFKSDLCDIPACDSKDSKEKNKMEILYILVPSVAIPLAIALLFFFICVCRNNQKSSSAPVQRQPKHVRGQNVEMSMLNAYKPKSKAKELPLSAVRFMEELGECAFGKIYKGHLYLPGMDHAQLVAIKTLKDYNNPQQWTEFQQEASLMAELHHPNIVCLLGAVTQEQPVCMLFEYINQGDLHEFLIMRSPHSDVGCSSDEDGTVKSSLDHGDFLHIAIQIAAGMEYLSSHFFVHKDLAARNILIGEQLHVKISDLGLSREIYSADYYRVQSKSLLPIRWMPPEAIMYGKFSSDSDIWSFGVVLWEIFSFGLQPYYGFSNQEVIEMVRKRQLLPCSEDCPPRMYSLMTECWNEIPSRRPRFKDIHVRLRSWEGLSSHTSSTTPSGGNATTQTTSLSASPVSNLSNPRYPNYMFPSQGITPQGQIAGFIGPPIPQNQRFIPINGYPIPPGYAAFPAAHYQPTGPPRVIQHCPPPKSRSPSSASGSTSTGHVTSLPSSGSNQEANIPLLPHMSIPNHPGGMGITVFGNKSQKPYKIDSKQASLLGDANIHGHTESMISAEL
- test-method-notes: flow cytometry, A549 cells
- Description: In brief, anti-ROR1 antibodies were serially diluted in staining buffer (PBS containing 2% FBS). Antibody solution was incubated with 1×10⁵ cells at 4° C. for 1 hour. […] After 1-hour incubation at 4° C., cells were washed twice with staining buffer and subjected to flow cytometry. PR000374 (Bench marker 1) and non-relevant IgG isotype control (Crownbio) were used as positive and negative controls, respectively.
Field: numeric (MFI). Do not append units.

Some binders with recorded MAX(MFI):
{"binder": "PR303199 (antibody, human IgG1, V domains shown, HCAb (heavy chain-only, human IgG1 Fc), no light chain) VH: EVQLVESGGGLVKPGGSLRLSCAASGFTFSDYYMSWIRQAPGKGLEWIAYISSSGSTIYYADSVKGRFTISRDNAKNSLYLQMNSLRAEDTAIYYCAREYYGSENYDHFDYWGQGTLVTVSS", "MAX(MFI)": 408000}
{"binder": "PR000374 (antibody, human IgG1, kappa, V domains shown, positive control; also called Bench marker 1) VH: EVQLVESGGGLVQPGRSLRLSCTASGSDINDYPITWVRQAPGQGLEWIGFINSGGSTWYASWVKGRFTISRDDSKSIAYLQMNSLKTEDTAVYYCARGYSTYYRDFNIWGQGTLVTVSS VL: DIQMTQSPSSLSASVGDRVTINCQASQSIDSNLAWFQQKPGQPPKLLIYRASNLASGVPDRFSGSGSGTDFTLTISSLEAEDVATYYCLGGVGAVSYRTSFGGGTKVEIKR", "MAX(MFI)": 695000}
{"binder": "PR303145 (antibody, human IgG1, V domains shown, HCAb (heavy chain-only, human IgG1 Fc), no light chain) VH: QVQLVESGGGLVKPGGSLRISCAASGFTFSNYNMSWIRQAPGKGVEWVSHISGSGRTIYYAESVKGRFTISRDNAKNSLYLQMNSLRAEDTAMYYCARDLSSGWYEDFDYWGQGTLVTVSS", "MAX(MFI)": 875000}

Field: next binder
Tell me measured MAX(MFI) for PR303147 (antibody, human IgG1, V domains shown, HCAb (heavy chain-only, human IgG1 Fc), no light chain) VH: EVQLVESGGGLVQPGGSLRLSCAASGFTFSNFWMYWVRQAPGKGLVWVSRINSDGSSTNYADSVKGRFTISRDNAKNTLYLQMNSLRVEDTAVYSCAREGSGWYEDFDYWGQGTLVTVSS please.
412000
